Every entry's value here was drawn from patent US9315463B2.

Biological target: UniProt:P07550
Sequence (P07550 whole entry): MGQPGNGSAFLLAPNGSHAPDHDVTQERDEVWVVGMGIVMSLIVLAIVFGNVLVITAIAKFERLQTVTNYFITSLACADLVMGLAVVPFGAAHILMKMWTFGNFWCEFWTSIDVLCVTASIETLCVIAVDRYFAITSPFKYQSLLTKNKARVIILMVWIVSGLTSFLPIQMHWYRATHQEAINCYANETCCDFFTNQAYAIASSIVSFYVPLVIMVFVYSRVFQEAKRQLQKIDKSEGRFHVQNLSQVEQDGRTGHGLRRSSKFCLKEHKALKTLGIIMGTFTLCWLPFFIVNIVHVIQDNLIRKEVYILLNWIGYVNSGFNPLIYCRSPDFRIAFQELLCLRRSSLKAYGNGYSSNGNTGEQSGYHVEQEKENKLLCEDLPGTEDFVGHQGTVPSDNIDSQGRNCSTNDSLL
Assay: Human adrenergic β2 receptor binding assay (3H-CGP12177, Sf9 membranes)
Details: read-out: Binding IC50, nM β2, 3H-CGP12177 displacement
Experimental: Test 1: Human Adrenergic β1 and β2 Receptor Binding Assays The study of binding to human adrenergic beta1 and beta2 receptors was performed using commercial membranes prepared from Sf9 cells where they are overexpressed (Perkin Elmer). […] Non specific binding was measured in the presence of 1 μM propanolol. […] The affinity of each test compound to the receptor was determined by using ten different concentrations ran in duplicate. […]
experimental_endpoint: IC50

compound="CN(CCCCCCCCCNC[C@H](O)c1ccc(O)c2[nH]c(=O)ccc12)C1CCC(OC(=O)C(O)(c2cccs2)c2cccs2)CC1 (stereo partly shown) [Example 1]" experimental_endpoint=IC50 meas_value="6.4 nM"
